Measured growth at 10 µM by item
Test system: OVCAR-8
EXPERIMENTAL DETAILS: Growth inhibition of human OVCAR-8 cells assessed as cell growth at 10 uM incubated for 48 hrs by sulforhodamine B assay relative to control
Format: functional
CONDITION: read-out: Activity
Numeric only. Scale: %

Solved cases below.
CC(=O)Nc1cc(CO)cc(NC(=O)c2ccc(C(=O)NCCCN3CCOCC3)cc2)c1	103
CC(=O)Nc1cc(CO[Si](C)(C)C(C)(C)C)cc(NC(=O)c2ccc(C(=O)Nc3cccc(NC(=O)CCCN(C)C)c3)cc2)c1	93
CC(=O)Nc1cc(CCl)cc(NC(=O)c2ccc(C(=O)Nc3cccc(NC(=O)CCCN(C)C)c3)cc2)c1	98
CC(=O)Nc1cc(CO)cc(NC(=O)c2ccc(C(=O)NCCCN(C)C)cc2)c1	108
CC(=O)Nc1cc(CO)cc(NC(=O)c2ccc(C(=O)Nc3cc(CO)cc(NC(C)=O)c3)cc2)c1	107

Report its growth at 10 µM with OVCAR-8 as the test system: CC(=O)Nc1cccc(NC(=O)c2ccc(C(=O)Nc3cc(CCl)cc(NC(C)=O)c3)cc2)c1
108

Please report growth at 10 µM with OVCAR-8 for item CC(=O)Nc1cccc(NC(=O)c2ccc(C(=O)Nc3cc(CO)cc(NC(C)=O)c3)cc2)c1 .
106

State growth at 10 µM (OVCAR-8) of CCN(CC)CC(=O)Nc1cccc(C(=O)Nc2cc(CO)cc(NC(C)=O)c2)c1 .
115

Check OVCAR-8 data and give growth at 10 µM for CC(=O)Nc1cc(CO)cc(NC(=O)c2ccc(C(=O)Nc3cccc(NC(=O)CCCN(C)C)c3)cc2)c1 .
105

Enter measured growth at 10 µM, system OVCAR-8, for the compound shown: CC(=O)Nc1cc(CCl)cc(NC(=O)c2ccc(C(=O)NCCCN(C)C)cc2)c1
111

Answer with growth at 10 µM of CC(=O)Nc1cc(CO)cc(NC(=O)c2ccc(NC(=O)CCCN3CCOCC3)cc2)c1 measured for OVCAR-8.
105

Provide OVCAR-8 growth at 10 µM reading for CCN(CC)CC(=O)Nc1ccc(C(=O)Nc2cc(CO)cc(NC(C)=O)c2)cc1 .
107

Quote growth at 10 µM with test system OVCAR-8 for CC(=O)Nc1ccc(C(=O)Nc2cc(CO)cc(NC(C)=O)c2)cc1
109

Param request: growth at 10 µM | system OVCAR-8 | item CC(=O)Nc1cc(CO)cc(NC(=O)c2cccc(NC(=O)CCCN3CCOCC3)c2)c1
107

Write down the reported growth at 10 µM (system: OVCAR-8) of CC(=O)Nc1cc(CO)cc(NC(=O)c2ccccc2)c1
102

Hello, the source for this data is ChEMBL document CHEMBL4715697, in case you need it.
